Test: Pharmacokinetics in dogs
Format: in vivo
Settings: beagle, plasma, intravenous, oral; after 6 h, all routes and doses tested in dog; read-out: plasma concentration of prodrug Compound 1

compound	concentration at 6 h
N#CC1CN(C[C@@H](Cc2nc[nH]c(=O)c2OP(=O)(O)O)c2ccc(C#Cc3ccc(CN4CCOCC4)cc3)cc2)C1 [Compound 1]	< 100 ng/mL

----------
Experiment: Solubility under physiological conditions
Assay type: physicochemical
Conditions: for example at pH 7.4

compound	solubility
N#CC1CN(C[C@@H](Cc2nc[nH]c(=O)c2O)c2ccc(C#Cc3ccc(CN4CCOCC4)cc3)cc2)C1 [Compound A]	< 1 mg/mL

----------
Experiment: Pharmacokinetics in rats
Assay type: in vivo, Male Sprague-Dawley (SD) rats
Details: male, Sprague-Dawley, plasma, intravenous, oral; after 4 h, all routes and doses tested in rat; read-out: plasma concentration of prodrug Compound 1
readout: concentration at 4 h

compound-smiles	assay-result
N#CC1CN(C[C@@H](Cc2nc[nH]c(=O)c2OP(=O)(O)O)c2ccc(C#Cc3ccc(CN4CCOCC4)cc3)cc2)C1	< 100 ng/mL
